MIC values by entry
- Tested on: C. glabrata
- procedure-summary: Minimum inhibitory concentration broth double-dilution assay
- Type: cell-based, Candida glabrata
- experimental-parameters: #9 C. glabrata EF1620; 24 h, 30 °C
*1 amine or outer side, *2 acyl side, *3 side chain or, on linkers, in order; H or OH if unused. Where a SMILES comes first, the peptide text is derived from it. Bridges are numbered along the chain shown (N, C = ends). [ ]: non-standard residue; d: D form. The star is where a group is joined. Orn(4R-OH,5R-OCH2CH2NMe3+) = C[N+](C)(C)CCO[C@@H](N[*:3])[C@H](O)C[C@H](N[*:1])C(=O)[*:2]; pTerphenylCO(4''-OnC5H11) = CCCCCOc1ccc(-c2ccc(-c3ccc(C(=O)*)cc3)cc2)cc1; hTyr(3S-OH,4S-OH) = N[C@H](C(=O)O)[C@H](O)[C@@H](O)c1ccc(O)cc1; Pro(3S-OH,4S-Me) = C[C@H]1CN[C@H](C(=O)O)[C@H]1O; hTyr(3R-OH) = N[C@H](C(=O)O)[C@H](O)Cc1ccc(O)cc1; Hyp = O=C(O)[C@@H]1C[C@@H](O)CN1
result-type: MIC (µg/mL)

[[record]]
compound = "CCCCCOc1ccc(-c2ccc(-c3ccc(C(=O)N[C@H]4C[C@@H](O)[C@@H](OCC[N+](C)(C)C)NC(=O)[C@@H]5[C@@H](O)[C@@H](C)CN5C(=O)[C@H]([C@@H](C)O)NC(=O)[C@H]([C@H](O)[C@@H](O)c5ccc(O)cc5)NC(=O)[C@@H]5C[C@@H](O)CN5C(=O)[C@H]([C@@H](C)O)NC4=O)cc3)cc2)cc1 [RZF, rezafungin] ({pTerphenylCO(4''-OnC5H11)}-[Orn(4R-OH,5R-OCH2CH2NMe3+)]T[Hyp][hTyr(3S-OH,4S-OH)]T[Pro(3S-OH,4S-Me)]; lactam 1-C)"
result_type = "MIC"
value_measured = 0.015

[[record]]
compound = "CCCCCOc1ccc(-c2ccc(-c3ccc(C(=O)N[C@H]4C[C@@H](O)[C@@H](OCC[N+](C)(C)C)NC(=O)[C@@H]5[C@@H](O)[C@@H](C)CN5C(=O)[C@H]([C@@H](C)O)NC(=O)[C@H]([C@H](O)Cc5ccc(O)cc5)NC(=O)[C@@H]5C[C@@H](O)CN5C(=O)[C@H]([C@@H](C)O)NC4=O)cc3)cc2)cc1 [Compound 2, dehydroxy-RZF] ({pTerphenylCO(4''-OnC5H11)}-[Orn(4R-OH,5R-OCH2CH2NMe3+)]T[Hyp][hTyr(3R-OH)]T[Pro(3S-OH,4S-Me)]; lactam 1-C)"
result_type = "MIC"
value_measured = 0.015


====

MIC values by entry
- Tested on: C. glabrata
- procedure-summary: Minimum inhibitory concentration broth double-dilution assay
- Type: cell-based, Candida glabrata
- experimental-parameters: #18 C. glabrata TGL00258; 24 h, 30 °C
*1 amine or outer side, *2 acyl side, *3 side chain or, on linkers, in order; H or OH if unused. Where a SMILES comes first, the peptide text is derived from it. Bridges are numbered along the chain shown (N, C = ends). [ ]: non-standard residue; d: D form. The star is where a group is joined. Orn(4R-OH,5R-OCH2CH2NMe3+) = C[N+](C)(C)CCO[C@@H](N[*:3])[C@H](O)C[C@H](N[*:1])C(=O)[*:2]; hTyr(3S-OH,4S-OH,3'-OSO3H) = N[C@H](C(=O)O)[C@H](O)[C@@H](O)c1ccc(O)c(OS(=O)(=O)O)c1; pTerphenylCO(4''-OnC5H11) = CCCCCOc1ccc(-c2ccc(-c3ccc(C(=O)*)cc3)cc2)cc1; Orn(4R-OH,5R-OH) = O=C([C@H](C[C@@H](O)[C@@H](O)N[*:3])N[*:1])[*:2]; hTyr(3S-OH,4S-OH) = N[C@H](C(=O)O)[C@H](O)[C@@H](O)c1ccc(O)cc1; Pro(3S-OH,4S-Me) = C[C@H]1CN[C@H](C(=O)O)[C@H]1O; X1 = CCCCCOc1ccc(-c2cc(-c3ccc(C(=O)*)cc3)no2)cc1; Gln(3R-OH) = NC(=O)C[C@@H](O)[C@H](N)C(=O)O; Hyp = O=C(O)[C@@H]1C[C@@H](O)CN1
result-type: MIC

[[record]]
compound = "CCCCCOc1ccc(-c2ccc(-c3ccc(C(=O)N[C@H]4C[C@@H](O)[C@@H](OCC[N+](C)(C)C)NC(=O)[C@@H]5[C@@H](O)[C@@H](C)CN5C(=O)[C@H]([C@@H](C)O)NC(=O)[C@H]([C@H](O)[C@@H](O)c5ccc(O)cc5)NC(=O)[C@@H]5C[C@@H](O)CN5C(=O)[C@H]([C@@H](C)O)NC4=O)cc3)cc2)cc1 [RZF, rezafungin] ({pTerphenylCO(4''-OnC5H11)}-[Orn(4R-OH,5R-OCH2CH2NMe3+)]T[Hyp][hTyr(3S-OH,4S-OH)]T[Pro(3S-OH,4S-Me)]; lactam 1-C)"
value_measured = "> 64 µg/mL"

[[record]]
compound = "CCCCCOc1ccc(-c2cc(-c3ccc(C(=O)N[C@H]4C[C@@H](O)[C@@H](O)NC(=O)[C@@H]5[C@@H](O)[C@@H](C)CN5C(=O)[C@H]([C@H](O)CC(N)=O)NC(=O)[C@H]([C@H](O)[C@@H](O)c5ccc(O)c(OS(=O)(=O)O)c5)NC(=O)[C@@H]5C[C@@H](O)CN5C(=O)[C@H]([C@@H](C)O)NC4=O)cc3)no2)cc1 [MCF, micafungin] (X1-[Orn(4R-OH,5R-OH)]T[Hyp][hTyr(3S-OH,4S-OH,3'-OSO3H)][Gln(3R-OH)][Pro(3S-OH,4S-Me)]; lactam 1-C)"
value_measured = "> 64 µg/mL"


====

- System: C. glabrata
- procedure-summary: Minimum inhibitory concentration broth double-dilution assay
- Type: cell-based, Candida glabrata
- experimental-parameters: #18 C. glabrata TGL00258; 24 h, 30 °C
*1 amine or outer side, *2 acyl side, *3 side chain or, on linkers, in order; H or OH if unused. Where a SMILES comes first, the peptide text is derived from it. Bridges are numbered along the chain shown (N, C = ends). [ ]: non-standard residue; d: D form. The star is where a group is joined. Orn(4R-OH,5R-OCH2CH2NMe3+) = C[N+](C)(C)CCO[C@@H](N[*:3])[C@H](O)C[C@H](N[*:1])C(=O)[*:2]; pTerphenylCO(4''-OnC5H11) = CCCCCOc1ccc(-c2ccc(-c3ccc(C(=O)*)cc3)cc2)cc1; Orn(4R-OH,5R-OH) = O=C([C@H](C[C@@H](O)[C@@H](O)N[*:3])N[*:1])[*:2]; hTyr(3S-OH,4S-OH) = N[C@H](C(=O)O)[C@H](O)[C@@H](O)c1ccc(O)cc1; Pro(3S-OH,4S-Me) = C[C@H]1CN[C@H](C(=O)O)[C@H]1O; hTyr(3R-OH) = N[C@H](C(=O)O)[C@H](O)Cc1ccc(O)cc1; Hyp = O=C(O)[C@@H]1C[C@@H](O)CN1
result-type: MIC (µg/mL)

[[record]]
molecule = "CCCCCOc1ccc(-c2ccc(-c3ccc(C(=O)N[C@H]4C[C@@H](O)[C@@H](O)NC(=O)[C@@H]5[C@@H](O)[C@@H](C)CN5C(=O)[C@H]([C@@H](C)O)NC(=O)[C@H]([C@H](O)[C@@H](O)c5ccc(O)cc5)NC(=O)[C@@H]5C[C@@H](O)CN5C(=O)[C@H]([C@@H](C)O)NC4=O)cc3)cc2)cc1 [ANF, anidulafungin] ({pTerphenylCO(4''-OnC5H11)}-[Orn(4R-OH,5R-OH)]T[Hyp][hTyr(3S-OH,4S-OH)]T[Pro(3S-OH,4S-Me)]; lactam 1-C)"
result_type = "MIC"
unit_descriptor = "µg/mL"
measurement_qualifier = ">"
value_measured = 64

[[record]]
molecule = "CCCCCOc1ccc(-c2ccc(-c3ccc(C(=O)N[C@H]4C[C@@H](O)[C@@H](OCC[N+](C)(C)C)NC(=O)[C@@H]5[C@@H](O)[C@@H](C)CN5C(=O)[C@H]([C@@H](C)O)NC(=O)[C@H]([C@H](O)Cc5ccc(O)cc5)NC(=O)[C@@H]5C[C@@H](O)CN5C(=O)[C@H]([C@@H](C)O)NC4=O)cc3)cc2)cc1 [Compound 2, dehydroxy-RZF] ({pTerphenylCO(4''-OnC5H11)}-[Orn(4R-OH,5R-OCH2CH2NMe3+)]T[Hyp][hTyr(3R-OH)]T[Pro(3S-OH,4S-Me)]; lactam 1-C)"
result_type = "MIC"
unit_descriptor = "µg/mL"
measurement_qualifier = "="
value_measured = 8

[[record]]
molecule = "CC[C@H](C)C[C@H](C)CCCCCCCCC(=O)N[C@H]1C[C@@H](O)[C@@H](NCCN)NC(=O)[C@@H]2[C@@H](O)CCN2C(=O)[C@H]([C@H](O)CCN)NC(=O)[C@H]([C@H](O)[C@@H](O)c2ccc(O)cc2)NC(=O)[C@@H]2C[C@@H](O)CN2C(=O)[C@H]([C@@H](C)O)NC1=O [CSF, caspofungin]"
result_type = "MIC"
unit_descriptor = "µg/mL"
measurement_qualifier = ">"
value_measured = 64

[[record]]
molecule = "CCCCCOc1ccc(-c2ccc(-c3ccc(C(=O)N[C@H]4C[C@@H](O)[C@@H](O)NC(=O)[C@@H]5[C@@H](O)[C@@H](C)CN5C(=O)[C@H]([C@@H](C)O)NC(=O)[C@H]([C@H](O)Cc5ccc(O)cc5)NC(=O)[C@@H]5C[C@@H](O)CN5C(=O)[C@H]([C@@H](C)O)NC4=O)cc3)cc2)cc1 [Compound 1, dehydroxy-ANF] ({pTerphenylCO(4''-OnC5H11)}-[Orn(4R-OH,5R-OH)]T[Hyp][hTyr(3R-OH)]T[Pro(3S-OH,4S-Me)]; lactam 1-C)"
result_type = "MIC"
unit_descriptor = "µg/mL"
measurement_qualifier = "="
value_measured = 32

